- Assay: inhibitors of hydroxyurea-induced Chk1 phosphorylation, primary screen, imaging, HeLa, phospho-Chk1 nuclear intensity (AID 1187)
- Applied Conditions: hydroxyurea-induced phospho-Chk1 immunofluorescence imaging, higher = more signal
Recorded z-score, one value per entry.
Please give the numeric answer without any surrounding text.

[[record]]
compound = "COc1cc(NN2C(C(O)c3ccc(I)cc3)C=CC3C(=O)N(c4ccccc4)C(=O)C32)cc(OC)c1OC (stereo not drawn)"
assay_metric = "z-score"
recorded_measurement = 0.241

[[record]]
compound = "COC(=O)[C@@]1(Cc2ccc(F)cc2)[C@H]2c3cc(C(=O)N(C)C)n(Cc4c(CO)[nH]cc(C)c4=O)c3C[C@H]2CN1C(=O)c1ccccc1"
assay_metric = "z-score"
recorded_measurement = 0.493


Turning now to a further record.
Ask | Entry COc1ccc(C(=O)Nc2cccc(CN3C(=O)[C@@]4(O[C@@H](CC(=O)N(CCO)Cc5ccccc5)[C@H]([Si](C)(C)c5ccc(OC)cc5)[C@H]4C)c4ccccc43)c2)cc1 has what z-score?
Reply | -0.643

* * *

In this section we review reported z-score values for a set of molecules.
- Assay: modulators of HCV replicon luciferase signal, primary screen, HCV replication inhibitor project, Huh7 cells, luciferase reporter (AID 1109);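 note: huh7 hepatoma cells harbouring a luciferase neomycin HCV replicon reporter; luciferase luminescence as measure of HCV replicon replication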
- Applied Conditions: 48 h, higher = more signal
Output: the number by itself.

Example entries begin here.
[[record]]
molecule = "C=CC1c2cc(O)c(OC)cc2CCN1Cc1ccc([N+](=O)[O-])o1 (stereo not drawn)"
recorded_measurement = 0.366

[[record]]
molecule = "CC(=O)NCCCC[C@@H]1NC(=O)[C@H]2C[C@@H](C(=O)NCCCCCNC(=O)CS)[C@@H](c3cccc(OCCO)c3)N2C1=O"
recorded_measurement = 0.217

[[record]]
molecule = "O=C1c2ccccc2[C@](Cc2ccccc2I)(C(=O)NC2CC2)[C@H](c2ccc(CO)cc2)N1Cc1ccccc1C(F)(F)F"
recorded_measurement = -2.2

[[record]]
molecule = "CN(C)C(=O)[C@@]1(Cc2ccccc2N=[N+]=[N-])N=C(c2ccc(OCCCO)cc2)O[C@H]1c1ccccc1"
recorded_measurement = -2.52


Ask | # get_value(readout='z-score', item= CCN(CC)c1ccc(N2CC=CC34O[C@@H]5C=CCCOC(=O)C5[C@H]3C(=O)N(CCO)[C@@H]4C2=O)cc1 (stereo partly drawn) )
Reply | -0.362

Ask | Name the recorded z-score for O=C1C2C=CC(C(O)c3ccc(I)cc3)N(Nc3ccccc3)C2C(=O)N1c1ccccc1 (stereo not drawn) .
Reply | 0.0376

Ask | Looking for the measured z-score of CCOC(=O)C1=CCC(c2ccccc2)N(S(=O)(=O)c2ccc([N+](=O)[O-])cc2)C1 (stereo not drawn) , can you help?
Reply | -1.93

Ask | Using the record for COCC1=C2[C@@H](CCc3ccccc3)OB(O)C[C@@H]2[C@@H]2C(=O)N(C)C(=O)[C@@H]2C1 , report its z-score.
Reply | -1.2

* * *

# composite z-score listing for each entry below
- Assay: small-molecule microarray binders of probe aShh, primary screen, biochemical, biotinylated probe, 635/667 nm fluorescence (AID 1114);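 note: probe is biotin-labelled aShh protein from a stem cell growth factor screen; measures binding of labelled protein to compounds printed on the slide; score merges feature fluorescence at 667 nm with signal-to-noise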
- Applied Conditions: higher = more signal

Previously resolved entries follow.
[[record]]
compound = "C=CCOC(=O)[C@H]1[C@@H]2C(=O)O[C@@H](c3ccccc3)[C@@H](c3ccccc3)N2[C@@H](c2ccc(OCCOC(=O)[C@H]3C[C@H]4C(=O)N[C@@H](CCCCNC(C)=O)C(=O)N4[C@H]3c3cccc(OCCO)c3)cc2)[C@]12C(=O)Nc1ccc(I)cc12"
recorded_measurement = -0.705

[[record]]
compound = "C=CCC(OC(C)=O)[C@@H]1[C@@H](N(Cc2cccc3ccccc23)C(=O)Cc2ccc(F)cc2)c2cc(OCCCO)ccc2N1C(=O)c1ccc(-c2ccccc2)cc1 (stereo partly specified)"
recorded_measurement = -0.0035

[[record]]
compound = "CC(C)c1ccc(NN2C(C(O)Cc3ccccc3)C=CC3C(=O)N(c4ccccc4)C(=O)C32)cc1 (stereo unspecified)"
recorded_measurement = 0.23


Ask | Look at this compound and give its reported composite z-score. CN1C(=O)C2C=CC(C(O)c3ccc(F)cc3)N(NC(=O)OC(C)(C)C)C2C1=O (stereo unspecified)
Reply | 0.265

Ask | Recorded composite z-score for CCCCCN1CC=CC23O[C@@H]4C=CCOC(=O)[C@@H]4[C@H]2C(=O)N(CCO)[C@@H]3C1=O (stereo partly specified) , please?
Reply | -0.138

Ask | Quick check: composite z-score of COCCOC(=O)N1C(=O)[C@@]2(c3cc(C#CCCO)ccc31)[C@H](C(=O)N1CCCCCCC1)[C@H]1C(=O)O[C@H](c3ccccc3)[C@H](c3ccccc3)N1[C@@H]2c1ccccc1OCCO ?
Reply | 2.38

* * *

- System: XIP peptide (Xip251-270)
- Assay: small-molecule binders of XIP peptide, primary screen, biochemical, small-molecule microarray, fluorescence 635/667 nm, 0.5 µg/mL protein (AID 1183)
- Applied Conditions: small-molecule microarray binding, fluorescence 635 nm; higher = more signal
# composite z-score binned as bin A (below 0.2), bin B (0.2 to below 0.6), bin C (0.6 or more)

The examples below pair each entry with its known result.
[[record]]
compound = "CC(=O)n1cc(C(O)C2C=CC3C(=O)N(c4ccccc4)C(=O)C3N2Nc2ccc(C(C)C)cc2)c2ccccc21 (configuration not stated)"
group_label = "bin C"

[[record]]
compound = "O=C1O[C@H](c2ccccc2)[C@H](c2ccccc2)N2[C@H]1[C@@H](C(=O)N1CCCCCCC1)[C@]1(C(=O)Nc3ccc(C#CC4(O)CCCCCC4)cc31)[C@H]2c1ccc(O)cc1"
group_label = "bin B"

[[record]]
compound = "Cc1ccc(S[C@]2(C(=O)NC(C)C)CC(=O)N(C(C)C)[C@@H]2c2ccc(CO)cc2I)cc1"
group_label = "bin A"

[[record]]
compound = "CCCCCN1CC=CC23O[C@@H]4C=CCOC(=O)[C@@H]4[C@H]2C(=O)N(CCO)[C@@H]3C1=O (some centres not stated)"
group_label = "bin A"

[[record]]
compound = "C#C[C@@H](CC)O[Si](C#CCCCC#N)(C(C)C)C(C)C"
group_label = "bin B"


Ask | Which composite z-score band matches CC(C)N1CC=CC23O[C@@H]4/C=C\CCCOC(=O)C4[C@H]2C(=O)N(CCCCCCO)[C@@H]3C1=O (some centres not stated) ?
Reply | bin A

Ask | Given C=CCC(OC(C)=O)[C@@H]1[C@@H](N(Cc2cccc3ccccc23)C(=O)c2ccc(-c3ccccc3)cc2)c2cc(OCCCO)ccc2N1C(=O)c1ccc(-c2ccccc2)cc1 (some centres not stated) , name the class its composite z-score places it in.
Reply | bin A

Ask | Band for the recorded composite z-score of COCC(=C=CC[C@@H](O)c1cccc(OCCO)c1)CCO ?
Reply | bin A

Ask | The entry to classify is O=c1cccc(-c2ccc(F)cc2)o1 ; which class holds it?
Reply | bin B

Ask | Dear colleague, I would appreciate it if you could identify the bin for CN1C(=O)C2C(C1=O)C1C=C(CCCO)C2C(C2CC2)N1Cc1cc2c(cc1Br)OCO2 (configuration not stated) and reply at your convenience.
Reply | bin C

* * *

- Target System: Dihydroorotate dehydrogenase (quinone), mitochondrial (Plasmodium falciparum (isolate 3D7))
- Assay: PfDHODH enzyme inhibitors, primary screen, biochemical, C-terminal His tag, absorbance 600 nm (AID 1175);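 note: recombinant parasite enzyme with a five histidine tag at its C terminus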
- Applied Conditions: DCIP absorbance 600 nm, higher = more signal, called active from +8 up or from −8 down
The source made the active and inactive calls.
Assay Metric: composite z-score

Worked cases, answers included:
[[record]]
compound = "COC(=O)[C@@]1(Cc2ccc(OC)cc2)[C@H]2c3cc(C(=O)N4CCCC4)n(Cc4cc(C)n(C)n4)c3C[C@H]2CN1C(=O)c1ccccc1"
recorded_measurement = "-0.77 (inactive)"

[[record]]
compound = "O=C1C2C=CC(C(O)C=Cc3ccc([N+](=O)[O-])cc3)N(Nc3ccccc3)C2C(=O)N1c1ccccc1 (configuration not stated)"
recorded_measurement = "-0.162 (inactive)"

[[record]]
compound = "Cc1ccccc1C(O)C1C=CC2C(=O)N(c3ccccc3)C(=O)C2N1Nc1ccc([N+](=O)[O-])cc1 (configuration not stated)"
recorded_measurement = "0.718 (inactive)"

[[record]]
compound = "CCOC(=O)C1=CCC(c2ccccc2)N(S(=O)(=O)c2ccc([N+](=O)[O-])cc2)C1 (configuration not stated)"
recorded_measurement = "0.243 (inactive)"

[[record]]
compound = "COCCOC(=O)N1C(=O)[C@@]2(c3cc(C#CC4=CCCCC4)ccc31)[C@H](c1ccc(O)cc1)N1[C@H](c3ccccc3)[C@H](c3ccccc3)OC(=O)[C@H]1[C@@H]2C(=O)NC[C@H](O)c1ccccc1"
recorded_measurement = "-0.495 (inactive)"

[[record]]
compound = "O=C1OCCC=C[C@H]2OC34C=CCN(c5ccc(Cl)cc5)C(=O)[C@H]3N(CCCCCCO)C(=O)[C@@H]4C12 (some centres not stated)"
recorded_measurement = "-0.477 (inactive)"


Ask | # query: composite z-score of entry CN1C(=O)C2C=CC(C(O)c3cc(C(F)(F)F)cc(C(F)(F)F)c3)N(NC(=O)OC(C)(C)C)C2C1=O (configuration not stated)
Reply | -0.251 (inactive)
